biological target: IGF1-R kinase (Homo sapiens, UniProt P08069)
Sequence (P08069 31-1367): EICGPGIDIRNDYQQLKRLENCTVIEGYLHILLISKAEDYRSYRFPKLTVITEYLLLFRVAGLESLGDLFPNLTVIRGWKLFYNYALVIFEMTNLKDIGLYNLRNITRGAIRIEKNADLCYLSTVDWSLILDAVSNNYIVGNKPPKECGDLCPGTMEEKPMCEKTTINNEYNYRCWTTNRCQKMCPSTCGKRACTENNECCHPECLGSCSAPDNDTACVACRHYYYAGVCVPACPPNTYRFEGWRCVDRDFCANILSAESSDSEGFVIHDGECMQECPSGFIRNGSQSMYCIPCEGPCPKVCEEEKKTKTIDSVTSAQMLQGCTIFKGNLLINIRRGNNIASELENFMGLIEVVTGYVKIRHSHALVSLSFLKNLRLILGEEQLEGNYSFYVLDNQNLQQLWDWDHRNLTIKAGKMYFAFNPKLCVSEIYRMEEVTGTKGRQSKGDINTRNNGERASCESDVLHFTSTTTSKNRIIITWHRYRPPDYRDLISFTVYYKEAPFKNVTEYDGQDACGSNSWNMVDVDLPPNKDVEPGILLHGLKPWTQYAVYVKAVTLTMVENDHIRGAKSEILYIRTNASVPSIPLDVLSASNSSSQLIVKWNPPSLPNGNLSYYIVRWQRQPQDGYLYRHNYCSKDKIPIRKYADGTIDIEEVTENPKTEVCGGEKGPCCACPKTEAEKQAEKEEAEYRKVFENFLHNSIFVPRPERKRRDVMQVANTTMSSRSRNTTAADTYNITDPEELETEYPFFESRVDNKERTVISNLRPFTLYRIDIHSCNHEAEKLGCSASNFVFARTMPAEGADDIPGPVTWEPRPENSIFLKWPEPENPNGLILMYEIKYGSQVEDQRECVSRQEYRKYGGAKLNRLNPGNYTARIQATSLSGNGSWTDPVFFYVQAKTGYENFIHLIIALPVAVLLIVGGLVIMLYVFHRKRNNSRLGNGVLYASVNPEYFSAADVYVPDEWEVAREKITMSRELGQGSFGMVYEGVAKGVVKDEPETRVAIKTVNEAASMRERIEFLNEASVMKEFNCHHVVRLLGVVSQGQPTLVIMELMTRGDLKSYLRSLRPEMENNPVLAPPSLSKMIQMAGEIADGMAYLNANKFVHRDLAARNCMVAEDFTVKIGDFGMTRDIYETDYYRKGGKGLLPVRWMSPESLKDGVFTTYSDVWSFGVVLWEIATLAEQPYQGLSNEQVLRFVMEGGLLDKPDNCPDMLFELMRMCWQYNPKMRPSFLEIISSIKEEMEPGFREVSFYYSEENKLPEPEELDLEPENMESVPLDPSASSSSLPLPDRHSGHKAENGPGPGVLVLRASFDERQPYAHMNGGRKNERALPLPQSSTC
pIC50: −log10 of the molar value.
Recorded pIC50, one value per entry.
readout-type: pIC50

>>> print(df.to_string())
                                   compound  value_measured
0  CCOc1ccccc1C1CC(N2CCCC2=O)c2cccc3c2N1CC3 (centres unmarked) [Compound 26]            5.85
1  O=C1CCCN1C1CC(c2cccc(C(F)(F)F)c2)N2CCc3cccc1c32 (centres unmarked) [Compound 7]            5.35
2  CCOc1ccc(C2CC(N3CCCC3=O)c3cccc4c3N2CC4)c(OCC)c1C (centres unmarked) [Compound 35]            5.46
3  O=C1CCCN1C1CC(c2cccc(Br)c2)N2CCc3cccc1c32 (centres unmarked) [Compound 3]            5.89
4  COc1cccc(C2CC(N3CCCC3=O)c3cccc4c3N2CC4)c1OC (centres unmarked) [Compound 25]            6.72
